- tested.on: Pim-1 kinase (Homo sapiens, UniProt P11309)
- Sequence (P11309 whole entry): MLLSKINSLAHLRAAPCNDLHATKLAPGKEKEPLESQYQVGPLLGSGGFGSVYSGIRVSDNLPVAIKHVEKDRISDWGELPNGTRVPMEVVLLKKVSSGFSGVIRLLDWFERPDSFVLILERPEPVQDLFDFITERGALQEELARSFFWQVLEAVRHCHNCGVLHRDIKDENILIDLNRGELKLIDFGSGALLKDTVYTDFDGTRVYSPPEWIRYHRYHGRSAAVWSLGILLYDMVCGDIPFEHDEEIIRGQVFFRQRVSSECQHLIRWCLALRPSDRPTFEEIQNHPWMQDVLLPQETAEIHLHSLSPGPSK
- procedure.summary: Pim-1 kinase inhibition assay (Promega Kinase-Glo)
- Format: biochemical
- condition.set: Table IV; Kinase-Glo, 10uM ATP; read-out: IC50 on Pim1
quantity.name: IC50 (nM)

{"compound": "N[C@H]1CCCN(c2ccn3ncc(-c4cccc(Cl)c4)c3n2)C1 [8-96]", "result.units": "nM", "numeric.result": 94}
{"compound": "N[C@H]1CC[C@H](Nc2ccc3ncc(-c4cccc(Cl)c4)n3n2)CC1 [8-68]", "result.units": "nM", "numeric.result": 4}
{"compound": "CN1CCC(CNc2ccn3ncc(-c4cccc(OC(F)(F)F)c4)c3n2)CC1 [8-67]", "result.units": "nM", "numeric.result": 45}
{"compound": "CO[C@H]1CC[C@H](Nc2ccc3ncc(-c4cccc(Cl)c4)n3n2)CC1 [8-38]", "result.units": "nM", "numeric.result": 18}
{"compound": "O=S1(=O)CCC(CNc2ccc3ncc(-c4cccc(OC(F)(F)F)c4)n3n2)CC1 [8-13]", "result.units": "nM", "numeric.result": 58}
{"compound": "O[C@H]1CC[C@H](Oc2ccc3ncc(-c4cccc(OC(F)(F)F)c4)n3n2)CC1 [8-4]", "result.units": "nM", "numeric.result": 7}
{"compound": "N[C@H]1CCCN(c2ccc3ncc(-c4cccc(OC(F)(F)F)c4)n3n2)C1 [8-25]", "result.units": "nM", "numeric.result": 30}
